Tested on: Saccharomyces cerevisiae;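 further: PSI is a weighted mean of sequencing reads over stability bins, variants kept only with over 10 reads, mCherry proximal and sfGFP distal, peptide attached via GGGS linker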
methodSummary: protein stability index of tFT-peptide fusion (C-terminal peptide) (PSI (0-1 scale)); higher = more stable (slower turnover)
conditionContext: genetic background: wild type; temperature: 30 C
What protein stability index was measured for each of the following?
API doc: respond with a numeric literal and nothing else, no unit.

Exam item: Which protein stability index value belongs to `IVKFVRAIGRKK` ?
Marked response: 0.664

Exam item: Next: `MALAVRVVTCGA`
Marked response: 0.375

Exam item: Another: `PPSPRHPAPQPR`
Marked response: 0.679

Exam item: Please do the same for `KGRAERKKDKKR` as well.
Marked response: 0.684

Exam item: Same lookup for `TRPTPTRADCFG` , please.
Marked response: 0.685

Exam item: Then this sequence: `RLSLGPGLLGSH`
Marked response: 0.74

Exam item: Item: `RRDRRVGEGEGV`
Marked response: 0.699

Exam item: Try this sequence next: `HPPITPYLHRRT`
Marked response: 0.724

Exam item: Now try `PFPAPPPPPPPP` .
Marked response: 0.678

Exam item: Proceed to `PLPPPPHPLLLL`
Marked response: 0.681

Exam item: Now this one: `RGRAVGGARKFG`
Marked response: 0.739

Exam item: What about `EGREGQRHRRVI` ?
Marked response: 0.669

Exam item: Entry `IAQDLEPACIKG` please
Marked response: 0.695

Exam item: Param item: `RVVILFVFLVYV`
Marked response: 0.324

Exam item: Next sequence: `GEGFLRVGLADV`
Marked response: 0.761

Exam item: How about `VVVVRCGWGGCG` ?
Marked response: 0.592

Exam item: Also `PIVLALPTFPPL` , if possible.
Marked response: 0.716

Exam item: Also `EVWGGFGGGGGS` , if possible.
Marked response: 0.72

Exam item: # iterate: `AQTVNNALAKPI`
Marked response: 0.655

Exam item: Now consider `SVWVCLASWCCG` and answer again.
Marked response: 0.549

Exam item: Proceed to `GESGGVGGQCWR`
Marked response: 0.74

Exam item: What do you get for `GGCAGGVGRLAV` ?
Marked response: 0.692

Values from the supplement of paper PMC10724198
